# Tested on: Escherichia coli TOP10;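 note: peptides expressed intracellularly from a pBAD plasmid library in pooled LB shake-flask culture, induced with 0.3% L-arabinose, DNA abundance read by NGS, three biological replicates, DESeq2 with apeglm shrinkage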
# experimentalDetails: shrunken log2 fold change of peptide-encoding DNA abundance (4.5 h post-induction vs induction); higher = less antimicrobial activity (less host growth inhibition)
# conditionSummary: time post-induction: 4.5 h; library: site-saturation at positions 5, 18, 19, 20
Values of shrunken log2 fold change greater than or equal to -0.07 map to 1 (yes); values below map to 0 (no).

Solved cases below.
> print(dat)
              itemsequence  classname
1  RRIRERPPRLPRPRPRPHFCPRP     0 (no)
2  RRIRARPPRLPRPRPRPGMEPRP    1 (yes)
3  RRIRYRPPRLPRPRPRPRWNPRP     0 (no)

Input line: Is the recorded value of shrunken log2 fold change equal to or greater than -0.07 for this sequence? `RRIRKRPPRLPRPRPRPPSSPRP`
Output line: 1 (yes)

Input line: Does the sequence `RRIRVRPPRLPRPRPRPCSIPRP` have recorded shrunken log2 fold change that is -0.07 or more?
Output line: 1 (yes)

Input line: Dear colleague, could you confirm whether `RRIRPRPPRLPRPRPRPFFDPRP` has shrunken log2 fold change at or above -0.07?
Output line: 0 (no)

Input line: Could you verify whether the entry `RRIRERPPRLPRPRPRPYYGPRP` shows shrunken log2 fold change of no less than -0.07?
Output line: 0 (no)

Input line: // inclusive: shrunken log2 fold change at least -0.07? input: `RRIRHRPPRLPRPRPRPSQIPRP`
Output line: 1 (yes)

Input line: Does the reported shrunken log2 fold change for `RRIRWRPPRLPRPRPRPNEWPRP` fall at or above the -0.07 mark?
Output line: 1 (yes)

Input line: Please tell me: is the sequence `RRIRHRPPRLPRPRPRPRHPPRP` at or over -0.07 in terms of shrunken log2 fold change?
Output line: 1 (yes)

Input line: Test whether the sequence `RRIRKRPPRLPRPRPRPGTYPRP` records shrunken log2 fold change of -0.07 or higher.
Output line: 1 (yes)

Input line: Does the sequence `RRIRHRPPRLPRPRPRPPDGPRP` have recorded shrunken log2 fold change that is -0.07 or more?
Output line: 1 (yes)

Input line: Form field: shrunken log2 fold change at least -0.07? Entry: `RRIRPRPPRLPRPRPRPKTLPRP`
Output line: 1 (yes)
